# target_under_test: T1, full-length human Tau (Tau441; 2N4R), recombinant (human, UniProt P10636 1-758)
# T1 construct: made in E. coli, His6-Smt3 tag removed; biotinylated through amines for Octet and phage work; also called r-Tau; recombinant Tau
# assay_comment: SPR Biacore
result_type: Kd (nM)
Answers are plain numbers, in nM.

input: Requested field: Kd. Item: Clone with L1_3 and H1_1 (antibody, V domains shown, IgG based on hu1C7.v2) VH: EVQLLESGGGLVQPGGSLRLSCAASGFKFSRVGVSWVRQAPGKGLEWVASISGDGGSYIHYADSVKGRFTISRDNSKNTLYLQMNSLRAEDTAVYYCARLPYWGQGTLVTVSS VL: DIVMTQSPDSLAVSLGERATINCKSSQSLHRSGTQKDYLVWYQQKPGQPPKLLIYWASTRESGVPDRFSGSGSGTDFTLTISSLQAEDVAVYYCQQYNSYPLTFGQGTKVEIK
output: 0.069

FYI, the data here is from patent US20200216522A1.
